For each record, write down the corresponding self-cleavage kobs at 640 uM GlcN6P.
B1: glmS ribozyme (parent)
chain: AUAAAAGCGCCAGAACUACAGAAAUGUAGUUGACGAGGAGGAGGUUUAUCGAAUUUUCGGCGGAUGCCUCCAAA

variants of: B1; assay: self-cleavage kobs at 640 uM GlcN6P; higher = faster cleavage; RNA array; settings: with glucosamine-6-phosphate
Fewer inactive variants are shown than the library holds.

Request: Give the measured self-cleavage kobs at 640 uM GlcN6P of U55C C61G G62C .
Response: < 1e-05 s⁻¹

Request: What value of self-cleavage kobs at 640 uM GlcN6P has been recorded for this entry: G43C U49A U57G C68G
Response: < 1e-05 s⁻¹

Request: // query self-cleavage kobs at 640 uM GlcN6P value for entry C11A A33G G43U G44A U54C
Response: < 1e-05 s⁻¹

Request: So what's the measured self-cleavage kobs at 640 uM GlcN6P for this one? U30A
Response: 0.00244 s⁻¹

Request: Which self-cleavage kobs at 640 uM GlcN6P value is on record for G13U A14G G37A U45A ?
Response: 9.84e-05 s⁻¹

Request: I am curious: what self-cleavage kobs at 640 uM GlcN6P value has been reported for A6G G35U ?
Response: < 1e-05 s⁻¹

Request: Given the entry U46C U56G , report its measured self-cleavage kobs at 640 uM GlcN6P.
Response: 0.000736 s⁻¹

Request: What does the record list as self-cleavage kobs at 640 uM GlcN6P for G44U C58G C68U ?
Response: < 1e-05 s⁻¹

Request: Which measured self-cleavage kobs at 640 uM GlcN6P value corresponds to U31G C61G ?
Response: < 1e-05 s⁻¹

Request: Returns the measured self-cleavage kobs at 640 uM GlcN6P for the input variant. Input: C11U G13A A48G U56C
Response: < 1e-05 s⁻¹

Request: self-cleavage kobs at 640 uM GlcN6P for C8G A36C ?
Response: < 1e-05 s⁻¹

Entry source: the supplement of paper PMC7125110
